- System: F380Y/beta2Delta
- assay_method_text: modulators of BK channel variants, profiling panel, selectivity assay, cell-based, U2OS BacMam, thallium flux, beta subunits (AID 1259406);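 also: initial slope of Thallos dye fluorescence rise after thallium is added; log ratio against the mean of 0.3% DMSO vehicle wells on the same plate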
- condition_parameters: at 30 µM
Quick reference: log fold change Tl+ flux of the listed items.
Quick one: just the number, no unit, thanks!

Worked cases, answers included:
# compound, result
measured = [
    ("C=CC1=C(C(=O)O)N2C(=O)[C@@H](NC(=O)C(=NO)c3csc(N)n3)[C@H]2SC1", 0.0258),
    ("COc1ccc(Oc2ccc([N+](=O)[O-])cc2C2=NC(=CN(C)C)C(=O)O2)cc1", -0.0604),
    ("Cc1ccc(C(C)NC(=O)c2ccc(Cl)c(Cl)c2)c(C)c1 (stereo unspecified)", -0.0218),
    ("CCN(CC)C(=O)[C@]1(c2ccccc2)C[C@@H]1CN", -0.038),
    ("CN(C)C=Nc1cc(Cl)c(-n2cccc2)cc1Oc1ccc(Cl)cc1", -0.0305),
    ("Oc1ccccc1C=NCCN=Cc1ccccc1O", 0.0233),
    ("O=[N+]([O-])c1cnc(Sc2nccc(-c3cccnc3)n2)s1", -0.0191),
    ("O=C(OCCSc1sccc1[N+](=O)[O-])c1ccc(Cl)cc1", 0.0128),
]

Asked: So what does the record say about log fold change Tl+ flux for CON=C(C(=O)N[C@@H]1C(=O)N2C(C(=O)O)=C(COC(N)=O)CS[C@H]12)c1ccco1 ?
Given back: 0.00116

Asked: So what does the record say about log fold change Tl+ flux for CSc1nc(C)nc(Sc2cccc(C(F)(F)F)c2)c1C#N ?
Given back: 0.00499

Asked: So what does the record say about log fold change Tl+ flux for O=c1[nH]nc(N2CCSCC2)[nH]1 ?
Given back: -0.0177

Asked: So what does the record say about log fold change Tl+ flux for Cc1ccc(C(=O)Cn2cc([N+](=O)[O-])nc2C)cc1 ?
Given back: 0.0463

Asked: So what does the record say about log fold change Tl+ flux for NC(=NC(=O)c1cccs1)c1cccs1 ?
Given back: 0.0445

Asked: So what does the record say about log fold change Tl+ flux for CCCCCN=C(N)NN=Cc1c[nH]c2ccc(OC)cc12 ?
Given back: 0.585

Asked: So what does the record say about log fold change Tl+ flux for CC(C)CC(NC(=O)C(COC(C)(C)C)NC(=O)C(Cc1ccc(O)cc1)NC(=O)C(CO)NC(=O)C(Cc1c[nH]c2ccccc12)NC(=O)C(Cc1cnc[nH]1)NC(=O)C1CCC(=O)N1)C(=O)N[C@@H](CCCN=C(N)N)C(=O)N1CCCC1C(=O)NNC(N)=O (stereo partly specified) ?
Given back: -0.0184

Asked: So what does the record say about log fold change Tl+ flux for Cc1onc(-c2ccccc2)c1N1C(=O)CCN(C(C)C)C1=O ?
Given back: -0.0373

---

- assay_method_text: sensitizers of A549 cells to miR-34 induction, primary screen, imaging, A549 dox-inducible miR-34, nuclei and caspase counts (AID 1347080)
- condition_parameters: A549 miR-34 inducible, Hoechst nuclei count, 48 h; measured here: total cells with miR-34 induction; stronger effect = lower value
Numbered stars: 1 amine (or outer) side, 2 acyl side, 3 side chain; on linkers, the order of the positions; unused ones are H or OH. Bridge positions count the residues as written; N and C are the ends. Square brackets hold non-standard residues; d marks the D form. Residues, ends and D or L forms follow the SMILES beside them. Peptide text beside a SMILES is read from it. I, II: the chains in the order shown. Actinocin(9to1) = Cc1c2oc3c(C)ccc(C(=O)[*:1])c3nc-2c(C(=O)[*:2])c(N)c1=O; NMeV = CN[CH](C(=O)O)C(C)C; Sar = CNCC(=O)O
Binary label based on cell count with cut-off 9000: below gives fulfilled, not below gives not fulfilled.

# molecule, assigned_label
measured = [
    ("CC1CC2C3CCC4=CC(=O)C=CC4(C)C3(F)C(O)CC2(C)C1(O)C(=O)CO (stereo not drawn)", "fulfilled"),
    ("C=C1CC[C@H](O)C/C1=C/C=C1\\CCCC2(C)C1CCC2C(C)CCCC(C)C (stereo partly drawn)", "not fulfilled"),
    ("CO[C@H]1/C=C/O[C@@]2(C)Oc3c(C)c(O)c4c(O)c(c(C=NN5CCN(C)CC5)c(O)c4c3C2=O)NC(=O)/C(C)=C\\C=C\\C(C)[C@H](O)[C@@H](C)[C@@H](O)[C@@H](C)[C@@H](OC(C)=O)[C@@H]1C (stereo partly drawn)", "not fulfilled"),
    ("CC(C)[C@H](NC(=O)[C@H](CC(=O)O)NC(=O)[C@H](CCCCN)NC(=O)[C@@H](N)CCCN=C(N)N)C(=O)N[C@@H](Cc1ccc(O)cc1)C(=O)O (H-RKDVY-OH)", "fulfilled"),
    ("Cc1c2oc3c(C)ccc(C(=O)OC(C)C4NC(=O)C(C(C)C)N(C)C(=O)CN(C)C(=O)C5CCCN5C(=O)C(C(C)C)NC4=O)c3nc-2c(C(=O)OC(C)C2NC(=O)C(C(C)C)N(C)C(=O)CN(C)C(=O)C3CCCN3C(=O)C(C(C)C)NC2=O)c(N)c1=O (stereo not drawn) (I: cyclo([Sar][NMeV]TVP) / II: cyclo([Sar][NMeV]TVP); linker I:3-II:3 via Actinocin(9to1); configuration not given here)", "fulfilled"),
]

Please turn your attention to the following entry.
Asked: cell count under 9000? Item: CC[C@@H]1OC(=O)C[C@@H](O)[C@H](C)[C@@H](O[C@@H]2O[C@H](C)[C@@H](O)[C@H](N(C)C)[C@H]2O)[C@@H](CCN2C[C@H](C)C[C@H](C)C2)C[C@@H](C)C(=O)/C=C/C(C)=C\[C@@H]1CO[C@@H]1O[C@H](C)[C@@H](O)[C@@H](OC)[C@H]1OC
Given back: not fulfilled

---

- assay_method_text: antimalarial activity against Dd2 strain (AID 2302);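 also: 0% = DMSO untreated growth and 100% = chloroquine plus artemisinin killed control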
- condition_parameters: P. falciparum Dd2 in RBCs, LDH growth readout, 72 h; at 2 µM; stronger effect = higher value
Could you label it Condition met if measured growth inhibition is 80% or higher, and Condition not met otherwise?

Solved cases below.
# compound, assigned_label
data = [
    ("O=[N+]([O-])c1ccc(C=NNc2nc(Nc3ccccc3)nc(Nc3ccccc3)n2)o1", "Condition not met"),
    ("CC(C)(C)OC(=O)N[C@@H](CS(=O)(=O)CCN=C(N)COCc1ccccc1)C(=O)OC(C)(C)C", "Condition not met"),
]

Asked: Hi team, for CCN(CC)C(=O)C(=O)c1c[nH]c2ccc(Cl)cc12 , is the recorded growth inhibition at or above 80%?
Given back: Condition met

Asked: Hi team, for CN1CCN(c2nsc3ccc(-c4ccc(NC(=O)Nc5ccccc5)cc4)cc23)CC1 , is the recorded growth inhibition at or above 80%?
Given back: Condition met

Asked: Hi team, for O=C(NCCN1CCCC1)c1cccc(Nc2nccc(Nc3ccc(Oc4ccccc4)cc3)n2)c1 , is the recorded growth inhibition at or above 80%?
Given back: Condition not met

Asked: Hi team, for Cc1noc(C)c1-c1cccc(CNCc2ccc(-c3cccc(-c4nc5ccc(F)cc5[nH]4)c3)cc2)c1 , is the recorded growth inhibition at or above 80%?
Given back: Condition met

Asked: Hi team, for COc1ccc2nccc([C@@H](O)CN3CCC(NCc4cnc5snnc5c4)C(F)C3)c2c1 (stereo not given in full) , is the recorded growth inhibition at or above 80%?
Given back: Condition met

Asked: Hi team, for CC(C)(CN)c1cc(-c2ccc(Cl)c(O)c2)c(-c2ccncc2)o1 , is the recorded growth inhibition at or above 80%?
Given back: Condition met

Asked: Hi team, for c1cc(CNC2CCN(CC3CCCCC3)CC2)cc(-n2ccnc2)c1 , is the recorded growth inhibition at or above 80%?
Given back: Condition met

---

- Test system: R275C/beta1
- assay_method_text: modulators of BK channel variants, profiling panel, selectivity assay, cell-based, U2OS BacMam, thallium flux, beta subunits (AID 1259406);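 also: initial slope of Thallos dye fluorescence rise after thallium is added; log ratio against the mean of 0.3% DMSO vehicle wells on the same plate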
- condition_parameters: at 30 µM
Calls of active or inactive are those of the source.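 Rule for the calls: active = thallium flux through the channel raised or lowered by more than 3 SD from vehicle-only wells, actives on both sides; inactive = the rest.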
observable: log fold change Tl+ flux

Worked cases, answers included:
# compound, result
measured = [
    ("O=C(O)c1cccc(CSc2cccs2)c1", "0.0346 (inactive)"),
    ("CCCCN1CCCC1CNC(=O)c1cc(C#N)c2ccccc2c1OC (stereo unspecified)", "-0.0222 (inactive)"),
    ("CS(=O)(=NS(=O)(=O)c1ccc(OC(F)(F)F)cc1)c1ccccc1 (stereo unspecified)", "-0.0151 (inactive)"),
    ("C=CCc1ccc(O)c(-c2ccc(O)c(CC=C)c2)c1", "0.387 (active)"),
    ("Cc1nn(C)c(NCc2cccs2)c1[N+](=O)[O-]", "-0.0048 (inactive)"),
]

# next compound below
Asked: Which measured log fold change Tl+ flux belongs to CN(Cc1nnc(-c2ccc3ccccc3c2)o1)c1nnc(C(F)(F)F)s1 , tested on R275C/beta1?
Given back: -0.0299 (inactive)

These data points were gathered from PubChem BioAssay.
